Tested on: Escherichia coli
Experiment: Antibacterial susceptibility testing (MIC/MBC), E. coli
Assay type: cell-based
Conditions: Escherichia coli, strain CFT 073; read-out: MIC E. coli CFT 073
MEASURE: MIC

COc1cc(NCc2ccccc2)ccc1NC(C)=O : > 500 µg/mL
Cc1ccc(-c2csc(N)n2)cc1 : > 500 µg/mL
CC(=O)Nc1cccc(C(C)NCc2cccc(Br)c2)c1 (centres unmarked) : 500 µg/mL
Nc1nccc(Nc2ccc(Br)cc2)n1 : < 250 µg/mL
Nc1nc(-c2ccc(Cl)cc2)cs1 : > 500 µg/mL
CC(=O)Nc1ccc(C(=O)C(O)c2ccc(NC(C)=O)cc2)cc1 (centres unmarked) : > 500 µg/mL
CC(=O)NC(Cc1ccccc1)C(=O)Nc1cccc(C)c1 (centres unmarked) : > 500 µg/mL
CC(C)NCC(O)COc1cccc2[nH]c3ccccc3c12 (centres unmarked) : 500 µg/mL

INPUT: Please supply the value of reported MIC for the item CC(NC(=O)C1CC(=O)N(c2ccccc2)C1)c1cccc(NC(=O)c2ccccc2)c1 (centres unmarked)
OUTPUT: > 500 µg/mL

INPUT: Please list MIC recorded for the compound `COc1ccc(-c2csc(N)n2)cc1OC`
OUTPUT: > 500 µg/mL

INPUT: Quote MIC reported for `CCn1c2ccccc2c2cc(NC(C)=O)ccc21` please.
OUTPUT: > 500 µg/mL

---

The entries below come with measured inhibition at 2000 µM values attached.
Target: E. coli PhoR (PhoR^E) (Escherichia coli, UniProt P08400)
Construct: The catalytic portion (DHp and CA domain) of E. coli PhoR (PhoR^E); made in house; host or cells: E. coli RIL
Sequence (P08400 210-425): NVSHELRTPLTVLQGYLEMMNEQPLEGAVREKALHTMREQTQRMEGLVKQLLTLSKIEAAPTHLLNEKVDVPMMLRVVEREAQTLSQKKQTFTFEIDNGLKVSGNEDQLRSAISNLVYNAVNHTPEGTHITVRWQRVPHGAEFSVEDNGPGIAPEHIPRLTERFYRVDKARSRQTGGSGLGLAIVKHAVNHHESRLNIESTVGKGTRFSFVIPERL
Assay: In vitro autophosphorylation kinase assay with γ-32P-ATP, PhoR^E
Assay type: biochemical
Details: 2 mM, 30 sec, compared to negative control

For orientation, consider the following solved cases.
CC(=O)Nc1cccc(-c2ccccc2Cl)c1 [S1.7, N-[3-(2-chlorophenyl)phenyl]acetamide] : > 40%
O=c1c2ccccc2[nH]c2ccc(O)cc12 : > 50%
CC(=O)Nc1cccc(C=Cc2ccc([N+](=O)[O-])cc2)c1 : > 75%

INPUT: Please list inhibition at 2000 µM recorded for the compound `Nc1ccc2c(c1)[nH]c1ccccc12`
OUTPUT: > 50%

---

Test system: Staphylococcus epidermidis
Experiment: Antibacterial susceptibility testing (MIC/MBC), S. epidermidis
Type: cell-based
Settings: strain DSM 20044
Procedure: Minimal inhibitory concentrations (MICs) were determined following a standard double-dilution method. […] For S. pneumoniae MICs were determined by adapting the standard double-dilution method to anaerobic conditions and of this microorganism (use of Todd Hewitt Yeast extract with 200 U/mL of catalase and continuous monitoring of growth).
Marks after values point to notes of the source that are not given here.
MEASURE: MIC S. epidermidis DSM 20044

Example cases with answers are listed next.
CC(C)(C)c1ccc(O)c(CNc2ccccc2)c1 [S1.14] : 500^¶ μg/ml
Oc1cccc2[nH]c3ccccc3c12 [F2.8] : 31 µg/mL
CCC(Nc1cccc(NC(C)=O)c1)c1ccc(F)cc1 (stereo not drawn) [S5] : 500^# μg/ml
NCCc1ccc2c(c1)[nH]c1ccccc12 [F2.3] : 31 µg/mL
CC[C@H](c1ccc(O)cc1)[C@@H](CC)c1ccc(F)cc1 [S1.13] : 1^¥ μg/ml

Next molecule, please.
INPUT: Send back Staphylococcus epidermidis MIC S. epidermidis DSM 20044 of CC(=O)Nc1cccc(C(C)NCc2cccc(Br)c2)c1 (stereo not drawn) [S6] only.
OUTPUT: 500^# μg/ml
